Here the recorded Herbicidal activity (0-100 scale) AVEFA is given for each entry.
system: cool season plant species; test: B2 Post-emergence efficacy Test 2, cool season plant species; assay type: in vivo; conditions: AVEFA, 30 g/Ha, 15 days after application, 0=no damage, 100=total kill
MEASUREMENT KIND: Herbicidal activity (0-100 scale) AVEFA

| QUERY SMILES | MEASURED TARGET | MEASUREMENT KIND | TEST RESULT |
| --- | --- | --- | --- |
| Cc1nn(C)c(=O)c(-c2c(F)ccc(Cl)c2CCc2ccccc2C(F)(F)F)c1O | cool season plant species | Herbicidal activity (0-100 scale) AVEFA | 20 |
| Cc1nn(C)c(=O)c(-c2c(F)ccc(Cl)c2CCc2ccc(F)cc2)c1OC(=O)C(C)C | cool season plant species | Herbicidal activity (0-100 scale) AVEFA | 40 |
| Cc1nn(C)c(=O)c(-c2c(F)ccc(Cl)c2CCc2ccc(Cl)cc2)c1OC(=O)C(C)C | cool season plant species | Herbicidal activity (0-100 scale) AVEFA | 70 |
| Cc1nn(C)c(=O)c(-c2c(F)ccc(Cl)c2CCc2ccc(C#N)cc2)c1O | cool season plant species | Herbicidal activity (0-100 scale) AVEFA | 20 |
| Cc1nn(C)c(=O)c(-c2c(F)ccc(Cl)c2CCc2ccc(F)cc2)c1O | cool season plant species | Herbicidal activity (0-100 scale) AVEFA | 30 |

====

system: warm season plant species; assay: B2 Post-emergence efficacy Test 2, warm season plant species; assay type: in vivo; details: Eleisine indica, 30 g/Ha, 15 days after application, 0-100 scale, 0=no damage, 100=total kill
Measured Herbicidal activity, ELEIN values are reported for all entries that follow.

| QUERY SMILES | Herbicidal activity, ELEIN |
| --- | --- |
| Cc1nn(C)c(=O)c(-c2c(F)ccc(Cl)c2CCc2ccc(C#N)cc2)c1O | 40 |
| Cc1nn(C)c(=O)c(-c2c(F)ccc(Cl)c2CCc2ccc(Cl)cc2)c1OC(=O)C(C)C | 0 |
| Cc1nn(C)c(=O)c(-c2c(F)ccc(Cl)c2CCc2ccccc2C(F)(F)F)c1O | 20 |
| Cc1nn(C)c(=O)c(-c2c(F)ccc(Cl)c2CCc2ccc(F)cc2)c1OC(=O)C(C)C | 40 |
| Cc1nn(C)c(=O)c(-c2c(F)ccc(Cl)c2CCc2ccc(F)cc2)c1O | 50 |

====

Each entry below carries its reported Herbicidal activity, XANST.
tested on: warm season plant species; assay: B2 Post-emergence efficacy Test 2, warm season plant species; assay type: in vivo; conditions: Xanthium strumarium, 125 g/Ha, 15 days after application, 0-100 scale, 0=no damage, 100=total kill

| QUERY SMILES | Herbicidal activity, XANST |
| --- | --- |
| Cc1nn(C)c(=O)c(-c2c(F)ccc(Cl)c2CCc2ccc(F)cc2)c1OC(=O)C(C)C | 90 |
| Cc1nn(C)c(=O)c(-c2c(F)ccc(Cl)c2CCc2ccc(Cl)cc2)c1OC(=O)C(C)C | 90 |
| Cc1nn(C)c(=O)c(-c2c(F)ccc(Cl)c2CCc2ccc(F)cc2)c1O | 90 |
| Cc1nn(C)c(=O)c(-c2c(F)ccc(Cl)c2CCc2ccc(C#N)cc2)c1O | 80 |

====

Recorded measurements of Herbicidal activity (0-100 scale) BROTE, one per entry
system: cool season plant species; assay: B2 Post-emergence efficacy Test 2, cool season plant species; format: in vivo; conditions: BROTE, 125 g/Ha, 15 days after application, 0=no damage, 100=total kill

| MOLECULE | MEASURED TARGET | Herbicidal activity (0-100 scale) BROTE |
| --- | --- | --- |
| Cc1nn(C)c(=O)c(-c2c(F)ccc(Cl)c2CCc2ccccc2C(F)(F)F)c1O [Compound 1.066] | cool season plant species | 70 |
| Cc1nn(C)c(=O)c(-c2c(F)ccc(Cl)c2CCc2ccc(Cl)cc2)c1OC(=O)C(C)C [Compound 1.089] | cool season plant species | 30 |
| Cc1nn(C)c(=O)c(-c2c(F)ccc(Cl)c2CCc2ccc(C#N)cc2)c1O [Compound 1.024] | cool season plant species | 20 |
| Cc1nn(C)c(=O)c(-c2c(F)ccc(Cl)c2CCc2ccc(F)cc2)c1O [Compound 1.048] | cool season plant species | 50 |
| Cc1nn(C)c(=O)c(-c2c(F)ccc(Cl)c2CCc2ccc(F)cc2)c1OC(=O)C(C)C [Compound 1.125] | cool season plant species | 0 |

====

Parameter Herbicidal activity, ORYSA: see the listing below.
tested on: warm season plant species; test: B2 Post-emergence efficacy Test 2, warm season plant species; format: in vivo; conditions: Orysa sativa, 500 g/Ha, 15 days after application, 0-100 scale, 0=no damage, 100=total kill
MEASUREMENT KIND: Herbicidal activity, ORYSA

| MOLECULE | TEST RESULT |
| --- | --- |
| Cc1nn(C)c(=O)c(-c2c(F)ccc(Cl)c2CCc2ccc(Cl)cc2)c1OC(=O)C(C)C [Compound 1.089] | 50 |
| Cc1nn(C)c(=O)c(-c2c(F)ccc(Cl)c2CCc2ccc(C#N)cc2)c1O [Compound 1.024] | 40 |
| Cc1nn(C)c(=O)c(-c2c(F)ccc(Cl)c2CCc2ccccc2C(F)(F)F)c1O [Compound 1.066] | 40 |
| Cc1nn(C)c(=O)c(-c2c(F)ccc(Cl)c2CCc2ccc(F)cc2)c1O [Compound 1.048] | 30 |
| Cc1nn(C)c(=O)c(-c2c(F)ccc(Cl)c2CCc2ccc(F)cc2)c1OC(=O)C(C)C [Compound 1.125] | 0 |

====

test system: warm season plant species; test: B2 Post-emergence efficacy Test 2, warm season plant species; assay type: in vivo; details: Zea mays, 125 g/Ha, 15 days after application, 0-100 scale, 0=no damage, 100=total kill

| QUERY SMILES | MEASURED TARGET | Herbicidal activity, ZEAMX |
| --- | --- | --- |
| Cc1nn(C)c(=O)c(-c2c(F)ccc(Cl)c2CCc2ccccc2C(F)(F)F)c1O | warm season plant species | 20 |
| Cc1nn(C)c(=O)c(-c2c(F)ccc(Cl)c2CCc2ccc(F)cc2)c1OC(=O)C(C)C | warm season plant species | 20 |
| Cc1nn(C)c(=O)c(-c2c(F)ccc(Cl)c2CCc2ccc(F)cc2)c1O | warm season plant species | 50 |
| Cc1nn(C)c(=O)c(-c2c(F)ccc(Cl)c2CCc2ccc(Cl)cc2)c1OC(=O)C(C)C | warm season plant species | 30 |
| Cc1nn(C)c(=O)c(-c2c(F)ccc(Cl)c2CCc2ccc(C#N)cc2)c1O | warm season plant species | 40 |

====

tested on: cool season plant species; experiment: B2 Post-emergence efficacy Test 2, cool season plant species; assay type: in vivo; conditions: POAAN, 125 g/Ha, 15 days after application, 0=no damage, 100=total kill

| COMPOUND | MEASURED TARGET | Herbicidal activity (0-100 scale) POAAN |
| --- | --- | --- |
| Cc1nn(C)c(=O)c(-c2c(F)ccc(Cl)c2CCc2ccccc2C(F)(F)F)c1O [Compound 1.066] | cool season plant species | 90 |
| Cc1nn(C)c(=O)c(-c2c(F)ccc(Cl)c2CCc2ccc(F)cc2)c1OC(=O)C(C)C [Compound 1.125] | cool season plant species | 60 |
| Cc1nn(C)c(=O)c(-c2c(F)ccc(Cl)c2CCc2ccc(C#N)cc2)c1O [Compound 1.024] | cool season plant species | 80 |
| Cc1nn(C)c(=O)c(-c2c(F)ccc(Cl)c2CCc2ccc(Cl)cc2)c1OC(=O)C(C)C [Compound 1.089] | cool season plant species | 90 |
| Cc1nn(C)c(=O)c(-c2c(F)ccc(Cl)c2CCc2ccc(F)cc2)c1O [Compound 1.048] | cool season plant species | 80 |

====

test system: cool season plant species; assay: B2 Post-emergence efficacy Test 2, cool season plant species; assay type: in vivo; details: BEAVA, 250 g/Ha, 15 days after application, 0=no damage, 100=total kill
MEASUREMENT KIND: Herbicidal activity (0-100 scale) BEAVA

| QUERY SMILES | MEASUREMENT KIND | TEST RESULT |
| --- | --- | --- |
| Cc1nn(C)c(=O)c(-c2c(F)ccc(Cl)c2CCc2ccc(F)cc2)c1O | Herbicidal activity (0-100 scale) BEAVA | 90 |
| Cc1nn(C)c(=O)c(-c2c(F)ccc(Cl)c2CCc2ccc(F)cc2)c1OC(=O)C(C)C | Herbicidal activity (0-100 scale) BEAVA | 70 |
| Cc1nn(C)c(=O)c(-c2c(F)ccc(Cl)c2CCc2ccc(C#N)cc2)c1O | Herbicidal activity (0-100 scale) BEAVA | 80 |
| Cc1nn(C)c(=O)c(-c2c(F)ccc(Cl)c2CCc2ccc(Cl)cc2)c1OC(=O)C(C)C | Herbicidal activity (0-100 scale) BEAVA | 90 |
| Cc1nn(C)c(=O)c(-c2c(F)ccc(Cl)c2CCc2ccccc2C(F)(F)F)c1O | Herbicidal activity (0-100 scale) BEAVA | 80 |

Where these numbers come from: patent US12162840B2
